Test system: SR leukemia
TEST DETAILS: NCI tumour cell line growth inhibition, 384-well format

{"SMILES INPUT": "O=C(Nc1ccncc1)C(=O)c1cn(Cc2ccc(Cl)cc2)c2ccccc12", "UNIT DESCRIPTOR": "nM", "VALUE OPERATOR": "<", "TGI": 10}
{"SMILES INPUT": "CC1(N)CCN(c2cccnc2NC(=O)c2nc(-c3ncccc3C(F)(F)F)cnc2N)CC1", "UNIT DESCRIPTOR": "nM", "VALUE OPERATOR": "=", "TGI": 21500}
{"SMILES INPUT": "COc1cc(Nc2c(C#N)cnc3cc(OCCCN4CCN(C)CC4)c(OC)cc23)c(Cl)cc1Cl", "UNIT DESCRIPTOR": "nM", "VALUE OPERATOR": "=", "TGI": 2680}
{"SMILES INPUT": "COc1cccc2c1ccc1nc3cccc(C(=O)N[C@H](C)CN(C)C)c3nc12", "UNIT DESCRIPTOR": "nM", "VALUE OPERATOR": "=", "TGI": 20.4}

###

System: NCI-H226 lung
TEST DETAILS: NCI tumour cell line growth inhibition, 384-well format

{"SMILES INPUT": "COc1cc(Nc2c(C#N)cnc3cc(OCCCN4CCN(C)CC4)c(OC)cc23)c(Cl)cc1Cl", "TGI, nM": 6250}
{"SMILES INPUT": "O=C(Nc1ccncc1)C(=O)c1cn(Cc2ccc(Cl)cc2)c2ccccc12", "TGI, nM": 787}
{"SMILES INPUT": "COc1cccc2c1ccc1nc3cccc(C(=O)N[C@H](C)CN(C)C)c3nc12", "TGI, nM": 340}
{"SMILES INPUT": "CNC(=O)c1cccc2cc(Oc3ccnc4cc(OCC5(N)CC5)c(OC)cc34)ccc12", "TGI, nM": 4730}

###

System: COLO 205 colon
TEST DETAILS: NCI tumour cell line growth inhibition, 384-well format
Reported TGI values for a set of compounds

{"SMILES INPUT": "CC1(N)CCN(c2cccnc2NC(=O)c2nc(-c3ncccc3C(F)(F)F)cnc2N)CC1", "TARGET DESC": "COLO 205 colon", "TGI": "> 54600 nM"}
{"SMILES INPUT": "COc1cc(Nc2c(C#N)cnc3cc(OCCCN4CCN(C)CC4)c(OC)cc23)c(Cl)cc1Cl", "TARGET DESC": "COLO 205 colon", "TGI": "5450 nM"}
{"SMILES INPUT": "COc1cccc2c1ccc1nc3cccc(C(=O)N[C@H](C)CN(C)C)c3nc12", "TARGET DESC": "COLO 205 colon", "TGI": "99.9 nM"}
{"SMILES INPUT": "O=C(Nc1ccncc1)C(=O)c1cn(Cc2ccc(Cl)cc2)c2ccccc12", "TARGET DESC": "COLO 205 colon", "TGI": "353 nM"}

###

Test system: HT29 colon
TEST DETAILS: NCI tumour cell line growth inhibition, 384-well format

{"SMILES INPUT": "CC1(N)CCN(c2cccnc2NC(=O)c2nc(-c3ncccc3C(F)(F)F)cnc2N)CC1", "VALUE OPERATOR": ">", "TGI, µM": 58.8}
{"SMILES INPUT": "CNC(=O)c1cccc2cc(Oc3ccnc4cc(OCC5(N)CC5)c(OC)cc34)ccc12", "VALUE OPERATOR": "=", "TGI, µM": 17.9}
{"SMILES INPUT": "O=C(Nc1ccncc1)C(=O)c1cn(Cc2ccc(Cl)cc2)c2ccccc12", "VALUE OPERATOR": ">", "TGI, µM": 100}
{"SMILES INPUT": "COc1cc(Nc2c(C#N)cnc3cc(OCCCN4CCN(C)CC4)c(OC)cc23)c(Cl)cc1Cl", "VALUE OPERATOR": "=", "TGI, µM": 3.59}
